# Test system: A431 cancer cells
# measurement protocol: A431 cytotoxicity
# Format: cell-based, human
# condition parameters: relative to standard cisplatin
endpoint name: A431 cytotoxicity assay: fold less active than cisplatin

smiles representation: Nc1nc(N)c2c(n1)[nH]c1cccc(Sc3ccc4ccccc4c3)c12
assay result: about 4 fold

smiles representation: COc1ccc(OC)c(Sc2cccc3[nH]c4nc(N)nc(N)c4c23)c1
assay result: about 4 fold

====

# system: EGFR (Homo sapiens)
# Sequence (P00533 25-1210): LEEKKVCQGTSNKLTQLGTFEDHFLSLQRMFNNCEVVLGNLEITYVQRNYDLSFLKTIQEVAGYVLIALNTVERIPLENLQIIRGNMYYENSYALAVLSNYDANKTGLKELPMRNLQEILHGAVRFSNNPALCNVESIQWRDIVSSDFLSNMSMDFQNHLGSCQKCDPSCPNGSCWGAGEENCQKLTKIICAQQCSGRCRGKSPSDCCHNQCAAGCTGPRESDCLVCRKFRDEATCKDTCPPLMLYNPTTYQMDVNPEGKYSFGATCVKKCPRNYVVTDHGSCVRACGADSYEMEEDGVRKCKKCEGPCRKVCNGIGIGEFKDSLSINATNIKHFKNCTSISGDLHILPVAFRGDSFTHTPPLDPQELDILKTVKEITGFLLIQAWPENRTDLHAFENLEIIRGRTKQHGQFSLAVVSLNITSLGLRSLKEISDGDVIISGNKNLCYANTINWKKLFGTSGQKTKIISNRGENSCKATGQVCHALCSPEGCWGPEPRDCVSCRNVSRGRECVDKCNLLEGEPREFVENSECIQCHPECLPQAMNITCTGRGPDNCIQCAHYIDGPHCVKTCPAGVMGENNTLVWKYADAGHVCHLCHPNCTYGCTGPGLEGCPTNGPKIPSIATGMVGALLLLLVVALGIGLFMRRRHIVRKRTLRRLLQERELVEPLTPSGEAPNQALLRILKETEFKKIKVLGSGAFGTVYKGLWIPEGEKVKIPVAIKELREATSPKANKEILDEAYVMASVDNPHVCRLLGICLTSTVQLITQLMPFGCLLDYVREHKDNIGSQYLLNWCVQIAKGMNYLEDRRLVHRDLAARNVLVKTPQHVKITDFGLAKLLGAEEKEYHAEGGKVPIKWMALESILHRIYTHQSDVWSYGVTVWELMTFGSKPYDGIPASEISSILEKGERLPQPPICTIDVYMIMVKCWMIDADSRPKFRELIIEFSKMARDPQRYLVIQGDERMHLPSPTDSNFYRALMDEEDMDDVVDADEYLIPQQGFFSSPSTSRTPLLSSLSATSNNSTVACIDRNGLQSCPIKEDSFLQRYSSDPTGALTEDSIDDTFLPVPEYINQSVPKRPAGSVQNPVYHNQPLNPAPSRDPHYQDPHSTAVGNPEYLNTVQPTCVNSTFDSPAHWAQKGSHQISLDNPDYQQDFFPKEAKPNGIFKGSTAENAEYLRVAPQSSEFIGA
# measurement protocol: EGFR kinase inhibition, phosphotyrosine ELISA in whole cells
# Type: cell-based
# condition parameters: relative to standard 24
Answer each item with its documented EGFR assay: fold less active than standard 24.

Sample Nc1nc(N)c2c(n1)[nH]c1cccc(Sc3ccc4ccccc4c3)c12 [Compound 3] — what was its EGFR assay: fold less active than standard 24?
100 fold

For COc1ccc(OC)c(Sc2cccc3[nH]c4nc(N)nc(N)c4c23)c1 [Compound 5] , what is its reported EGFR assay: fold less active than standard 24?
22 fold

Any idea what EGFR assay: fold less active than standard 24 was measured for Nc1nc(N)c2c(n1)[nH]c1cccc(Sc3cccc4ccccc34)c12 [Compound 4] ?
835 fold

State the recorded EGFR assay: fold less active than standard 24 for this entry: Nc1nc(N)c2c(n1)[nH]c1cccc(Sc3ccc(Cl)cc3)c12 [Compound 7]
40 fold

These entries and their values trace back to paper PMC5398096.
